System: Sodium-dependent dopamine transporter (Homo sapiens, UniProt Q01959)
Sequence (Q01959 whole entry): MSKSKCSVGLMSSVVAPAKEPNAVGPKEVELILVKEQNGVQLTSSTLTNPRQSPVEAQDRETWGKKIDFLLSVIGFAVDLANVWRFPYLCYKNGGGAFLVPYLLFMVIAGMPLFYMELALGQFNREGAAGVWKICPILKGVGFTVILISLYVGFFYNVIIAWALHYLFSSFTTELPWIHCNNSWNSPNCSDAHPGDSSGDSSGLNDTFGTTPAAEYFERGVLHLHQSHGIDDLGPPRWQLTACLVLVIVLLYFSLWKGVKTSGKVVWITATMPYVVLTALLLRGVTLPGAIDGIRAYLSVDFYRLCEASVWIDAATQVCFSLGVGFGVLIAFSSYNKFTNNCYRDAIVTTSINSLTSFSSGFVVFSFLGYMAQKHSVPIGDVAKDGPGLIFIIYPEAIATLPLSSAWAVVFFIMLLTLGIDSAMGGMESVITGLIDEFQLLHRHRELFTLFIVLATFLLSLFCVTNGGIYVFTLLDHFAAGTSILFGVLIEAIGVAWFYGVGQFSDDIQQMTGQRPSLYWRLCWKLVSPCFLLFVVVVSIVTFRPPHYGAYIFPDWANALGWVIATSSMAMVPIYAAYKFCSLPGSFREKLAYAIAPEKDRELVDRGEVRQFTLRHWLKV
Assay explanation: Inhibition of [3H]dopamine uptake at human DAT expressed in HEK293 cells at 10 uM after 10 mins by scintillation counting
Measure: inhibition (%)
Give the value, in units of %, as a plain number.

// known answers, use as guide
Compound | inhibition / %
C[C@H]([C@@H](O)c1csc2ccccc12)N1CC=C(Cc2ccccc2)CC1 (racemic) | 75
COc1ccc2cc(C(O)CCN3CCC(O)(Cc4ccccc4)CC3)ccc2c1Cl (racemic) | 73
C[C@@H]([C@@H](O)c1cccc(F)c1)N1CC=C(Cc2ccccc2)CC1 (racemic) | 70
OC(CCN1CC=C(Cc2ccccc2)CC1)c1ccc2c(c1)CCO2 (racemic) | 49

Data request: Indicate the recorded inhibition value for this compound: C[C@@H]([C@@H](O)c1csc2ccccc12)N1CC=C(Cc2ccccc2)CC1 (racemic)
Data returned: 77

* * *

inhibition for assorted compounds
System: Muscarinic acetylcholine receptor M2 (Homo sapiens) (UniProt P08172)
Sequence (whole entry): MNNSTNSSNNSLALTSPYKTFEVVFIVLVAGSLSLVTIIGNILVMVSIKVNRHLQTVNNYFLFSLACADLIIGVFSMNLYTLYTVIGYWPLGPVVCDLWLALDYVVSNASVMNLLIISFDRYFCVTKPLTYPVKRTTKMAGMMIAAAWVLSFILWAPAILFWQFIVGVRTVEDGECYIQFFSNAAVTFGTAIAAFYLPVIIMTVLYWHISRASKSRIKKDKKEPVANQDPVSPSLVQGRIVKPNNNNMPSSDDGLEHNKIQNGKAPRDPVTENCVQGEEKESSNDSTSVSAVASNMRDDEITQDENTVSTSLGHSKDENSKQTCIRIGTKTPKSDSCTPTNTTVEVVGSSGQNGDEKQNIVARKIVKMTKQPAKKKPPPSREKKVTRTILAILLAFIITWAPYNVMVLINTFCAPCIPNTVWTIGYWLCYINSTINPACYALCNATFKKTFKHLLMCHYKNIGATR
Assay explanation: Displacement of [3H]AF-DX384 from M2 receptor at 10 uM
Give the value, in units of %, as a plain number.

// known answers, use as guide
Compound | System | inhibition, %
OC(CCN1CC=C(Cc2ccccc2)CC1)c1csc2ccccc12 (racemic) | Muscarinic acetylcholine receptor M2 (Homo sapiens) (UniProt P08172) | 3.7
OC(CCN1CC=C(Cc2ccccc2)CC1)c1cc2ccccc2s1 (racemic) | Muscarinic acetylcholine receptor M2 (Homo sapiens) (UniProt P08172) | 6.5
OC(CCN1CCC(O)(Cc2ccccc2)CC1)c1ccc(Cl)c(Cl)c1 (racemic) | Muscarinic acetylcholine receptor M2 (Homo sapiens) (UniProt P08172) | 16.5
COc1ccc2cc(C(O)CCN3CC=C(Cc4ccccc4)CC3)ccc2c1Cl (racemic) | Muscarinic acetylcholine receptor M2 (Homo sapiens) (UniProt P08172) | 12.9

Then there is this compound:
Data request: Indicate the recorded inhibition value for this compound: OC(CCN1CC=C(Cc2ccccc2)CC1)c1ccc(Cl)c(Cl)c1 (racemic)
Data returned: 7.9

* * *

Assay explanation: Elimination half life in Sprague-Dawley rat at 10 mg/kg, po
Type: ADME, organism-based
Set-up: dose 10 mg/kg, route oral
Recorded conditions: in vivo, read-out: beta t1/2 (converted)
half-life for assorted compounds
Give the value, in units of min, as a plain number.

Compound | half-life, min
OC(CCN1CCC(O)(Cc2ccccc2)CC1)c1ccc(Cl)c(Cl)c1 (racemic) | 174

Then there is this compound:
Data request: Indicate the recorded half-life value for this compound: OC(CCN1CC=C(Cc2ccccc2)CC1)c1csc2ccccc12 (racemic)
Data returned: 210
